test system: L1210 leukemia ip in BDF1 mice, survival T/C; assay: NCI In Vivo Anticancer Drug Screen. Data for tumor model L1210 Leukemia (intraperitoneal) in B6D2F1 (BDF1) mice; conditions: endpoint: mean survival time; dose: 200.0 mg/kg/injection; schedule: Q01DX001 (ip); vehicle: other; higher = longer survival
Inconclusive results and toxic doses are left out.
Below, each of the compounds is paired with its reported T/C value.

Reference set, count: 5
compound=CCOC(=O)C(C)(C(=O)OCC)c1cccc2ccccc12 experimental_result="102 % of control"
compound=Cc1cc(C)c2[nH]c(=O)c(C)c(C)c2c1Br experimental_result="94 % of control"
compound=O=C1COc2ccccc2N1 experimental_result="96 % of control"
compound=CCCCN(CCCC)/N=N/c1nc[nH]c1C(=O)OC experimental_result="97 % of control"
compound=Clc1ccc(Cl)c2c(Br)cncc12 experimental_result="98 % of control"

Return T/C measured with L1210 leukemia ip in BDF1 mice, survival T/C given this compound: `Nc1ncnc2c(C(=O)O)c[nH]c12`
110 % of control

Return T/C measured with L1210 leukemia ip in BDF1 mice, survival T/C given this compound: CCCCCCCCCCCCCC(=O)OCC(OC(=O)CCCCCCCCCCCCC)C(OC(=O)CCCCCCCCCCCCC)C(OC(=O)CCCCCCCCCCCCC)C(C=O)OC(=O)CCCCCCCCCCCCC (stereo not given)
97 % of control

* * *

system: L1210 leukemia ip in BDF1 mice, survival T/C; experiment: NCI In Vivo Anticancer Drug Screen. Data for tumor model L1210 Leukemia (intraperitoneal) in B6D2F1 (BDF1) mice; settings: endpoint: mean survival time; dose: 400.0 mg/kg/injection; schedule: Q01DX001 (ip); vehicle: saline with Tween-80; higher = longer survival
Inconclusive results and toxic doses are left out.
Below, each of the molecules is paired with its reported T/C value.

molecule=CC(=O)c1cccc(NC(=O)Oc2cc(C)c(Cl)c(C)c2)c1 experimental_result="98 % of control"
molecule=CC1=Nc2c(c(C(C)(C)C)c3nc(C)oc3c2C(C)(C)C)C1 experimental_result="94 % of control"
molecule=CSc1ccc(OC(=O)Nc2cc(Cl)ccc2C)cc1 experimental_result="93 % of control"
molecule=C=CCN(CC=C)/N=N\c1nc[nH]c1C(=O)OC experimental_result="98 % of control"
molecule=CCn1c(=S)[nH]c(/C=N/N(CCO)CCO)c(C)c1=O experimental_result="95 % of control"
molecule=COc1ccc(CCN(C)C2c3ccccc3C=Cc3ccccc32)cc1OC experimental_result="98 % of control"
molecule="CC(=O)NC(c1ccccc1)C(NC(=O)c1ccccc1)c1ccccc1 (centres undefined)" experimental_result="89 % of control"
molecule=CCOC(=S)c1ccc(S(=O)(=O)Nc2ccccc2)cc1 experimental_result="95 % of control"
molecule=O=[N+]([O-])c1cccc(OCCCOc2ccc(S(=O)(=O)F)cc2)c1 experimental_result="90 % of control"
molecule=Cc1ccc(C(C)C)c(OC(=O)Nc2cc(Cl)ccc2C)c1 experimental_result="93 % of control"

Consider the molecule `CCOc1ccc(OCC)c(NC(=O)Nc2cc(Cl)ccc2OC)c1` and give its measured T/C.
87 % of control

Consider the molecule `COc1ccc2c(c1C)C(=O)c1ccccc1C2` and give its measured T/C.
90 % of control

Consider the molecule `Nc1cc(Cl)c(N)c(N)n1` and give its measured T/C.
108 % of control

Consider the molecule `COC(=O)c1cccc2cn3ccc4c5ccccc5nc-4c3cc12` and give its measured T/C.
92 % of control

Cited source for all entries: PubChem BioAssay AID248
